Ref: paper PMC11816618

# test.summary: PK comparison between three administration routes (IV, PO, SC), plasma LC-MS/MS
# Format: in vivo, Sprague-Dawley rats
# cond: Sprague-Dawley, rat, plasma; single ANA dose 1.0 mg/kg SC in miglyol, male SD rats, n = 5, mean ± SD
metric: CL/F
Please answer using a numeric value trailed by its unit.

Problem: Find the recorded CL/F belonging to O=C1CN2Cc3c(ccc(Cl)c3Cl)N=C2N1 [Anagrelide] and report it.
Result: 101 mL/min/kg

###

# test.summary: PK comparison between three administration routes (IV, PO, SC), plasma LC-MS/MS
# Format: in vivo, Sprague-Dawley rats
# cond: male, Sprague-Dawley, rat, plasma, sc, 1 mg/kg, analyte in plasma after single ANA dose 1.0 mg/kg SC in miglyol, male SD rats, n = 5, mean ± SD; read-out: Tmax
metric: Tmax (h)
State just the number; it will be interpreted in h.

Problem: Find the recorded Tmax belonging to O=C1CN2Cc3c(ccc(Cl)c3Cl)N=C2N1 [Anagrelide] and report it.
Result: 1

###

# test.summary: Long-term plasma exposure after a single SC ANA dose (56-day follow-up), plasma LC-MS/MS
# Type: in vivo, Sprague-Dawley rats
# cond: Sprague-Dawley, rat; analyte in plasma after single SC ANA dose 35 mg/kg, male SD rats, n = 5, 56-day follow-up; read-out: Cmax
metric: Cmax (ng/mL)
State just the number; it will be interpreted in ng/mL.

compound | unit.annotation | Cmax
O=C1CN2Cc3c(ccc(Cl)c3Cl)N=C2N1 [Anagrelide] | ng/mL | 21.8

Shifting focus to the compound that follows.
Problem: Find the recorded Cmax belonging to NC1=Nc2ccc(Cl)c(Cl)c2CN1 and report it.
Result: 2.4

###

# test.summary: PK comparison between three administration routes (IV, PO, SC), plasma LC-MS/MS
# Assay type: in vivo, Sprague-Dawley rats
# cond: Sprague-Dawley, rat, plasma; single ANA dose 2.5 mg/kg PO, male SD rats, n = 3, mean ± SD
metric: CL/F (mL/min/kg)
State just the number; it will be interpreted in mL/min/kg.

Problem: Find the recorded CL/F belonging to O=C1CN2Cc3c(ccc(Cl)c3Cl)N=C2N1 [Anagrelide] and report it.
Result: 718

###

# test.summary: PK comparison between three administration routes (IV, PO, SC), plasma LC-MS/MS
# Type: in vivo, Sprague-Dawley rats
# cond: Sprague-Dawley, rat; analyte in plasma after single ANA dose 2.5 mg/kg PO, male SD rats, n = 3, mean ± SD
// reported half-life for each item listed
State just the number; it will be interpreted in min.

molecule | half-life, min
NC1=Nc2ccc(Cl)c(Cl)c2CN1 [RL603] | 786

Shifting focus to the molecule that follows.
Problem: Find the recorded half-life belonging to O=C1CN2Cc3c(ccc(Cl)c3Cl)N=C2N1 [Anagrelide] and report it.
Result: 603

###

# test.summary: PK comparison between three administration routes (IV, PO, SC), plasma LC-MS/MS
# Format: in vivo, Sprague-Dawley rats
# cond: Sprague-Dawley, rat, plasma; single ANA dose 0.5 mg/kg IV, male SD rats, n = 3, mean ± SD
metric: clearance (L/h/kg)
State just the number; it will be interpreted in L/h/kg.

Problem: Find the recorded clearance belonging to O=C1CN2Cc3c(ccc(Cl)c3Cl)N=C2N1 [Anagrelide] and report it.
Result: 1.92

###

# test.summary: PK comparison between three administration routes (IV, PO, SC), plasma LC-MS/MS
# Format: in vivo, Sprague-Dawley rats
# cond: Sprague-Dawley, rat, plasma; single ANA dose 0.5 mg/kg IV, male SD rats, n = 3, mean ± SD
# Experimental: The rats were purchased from SPF Biotechnology Co. Ltd. (Beijing, China). Animals were acclimated to the test facility for at least three days, during which their general health was checked by veterinary staff or other authorized personnel. Animals were kept in polycarbonate cages containing absorbent corncob bedding, with a maintained temperature range of +20-25 °C and a 12-h light/dark cycle. […] SD rat plasma was analyzed for ANA, 3-OH-ANA, and RL603 concentrations by Pharmaron (Beijing, China). […]
metric: MRT inf (min)
State just the number; it will be interpreted in min.

Problem: Find the recorded MRT inf belonging to O=C1CN2Cc3c(ccc(Cl)c3Cl)N=C2N1 [Anagrelide] and report it.
Result: 30.6
